# assay-text: Preliminary acute toxicities in mice (Table H)
# test-settings: mouse, in vivo, dihydrochloride, oral
readout-type: LD50

Ask | Name the reported LD50 value associated with the compound C/C=C\C=C\C(=O)NCC(O)CC(N)CC(=O)NCCC(=N)N (stereo not shown) [I]
Reply | 2000 to 4000 mg/kg
